Target: α4β7 integrin (Homo sapiens (Human), UniProt P13612+P26010)
Sequence (P13612 34-1032): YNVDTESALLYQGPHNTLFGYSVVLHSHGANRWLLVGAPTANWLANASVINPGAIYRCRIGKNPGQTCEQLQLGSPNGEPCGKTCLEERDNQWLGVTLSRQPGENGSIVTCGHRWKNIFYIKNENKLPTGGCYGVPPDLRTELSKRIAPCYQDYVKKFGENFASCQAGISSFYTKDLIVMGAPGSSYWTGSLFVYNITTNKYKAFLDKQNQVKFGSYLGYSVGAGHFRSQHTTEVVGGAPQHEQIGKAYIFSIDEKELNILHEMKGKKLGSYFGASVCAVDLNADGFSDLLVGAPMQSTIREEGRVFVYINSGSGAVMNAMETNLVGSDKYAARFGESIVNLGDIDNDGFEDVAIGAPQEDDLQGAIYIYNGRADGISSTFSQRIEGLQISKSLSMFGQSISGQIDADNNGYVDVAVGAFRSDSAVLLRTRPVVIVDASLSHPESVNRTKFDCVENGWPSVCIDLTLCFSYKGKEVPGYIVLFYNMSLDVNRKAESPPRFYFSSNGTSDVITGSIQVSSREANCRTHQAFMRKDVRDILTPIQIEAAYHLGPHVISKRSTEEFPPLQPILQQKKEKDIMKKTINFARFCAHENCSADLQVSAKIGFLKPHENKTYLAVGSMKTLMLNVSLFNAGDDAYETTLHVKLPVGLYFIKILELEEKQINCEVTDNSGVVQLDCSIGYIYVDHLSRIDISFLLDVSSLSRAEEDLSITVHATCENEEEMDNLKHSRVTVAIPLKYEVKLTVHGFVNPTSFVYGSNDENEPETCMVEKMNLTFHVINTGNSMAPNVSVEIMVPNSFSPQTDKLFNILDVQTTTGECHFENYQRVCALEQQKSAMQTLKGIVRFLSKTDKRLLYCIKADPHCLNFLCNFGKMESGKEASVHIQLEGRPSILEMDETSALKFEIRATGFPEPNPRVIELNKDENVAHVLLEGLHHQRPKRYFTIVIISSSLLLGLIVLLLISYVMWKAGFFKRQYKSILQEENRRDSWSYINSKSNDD
Sequence (P26010 20-798): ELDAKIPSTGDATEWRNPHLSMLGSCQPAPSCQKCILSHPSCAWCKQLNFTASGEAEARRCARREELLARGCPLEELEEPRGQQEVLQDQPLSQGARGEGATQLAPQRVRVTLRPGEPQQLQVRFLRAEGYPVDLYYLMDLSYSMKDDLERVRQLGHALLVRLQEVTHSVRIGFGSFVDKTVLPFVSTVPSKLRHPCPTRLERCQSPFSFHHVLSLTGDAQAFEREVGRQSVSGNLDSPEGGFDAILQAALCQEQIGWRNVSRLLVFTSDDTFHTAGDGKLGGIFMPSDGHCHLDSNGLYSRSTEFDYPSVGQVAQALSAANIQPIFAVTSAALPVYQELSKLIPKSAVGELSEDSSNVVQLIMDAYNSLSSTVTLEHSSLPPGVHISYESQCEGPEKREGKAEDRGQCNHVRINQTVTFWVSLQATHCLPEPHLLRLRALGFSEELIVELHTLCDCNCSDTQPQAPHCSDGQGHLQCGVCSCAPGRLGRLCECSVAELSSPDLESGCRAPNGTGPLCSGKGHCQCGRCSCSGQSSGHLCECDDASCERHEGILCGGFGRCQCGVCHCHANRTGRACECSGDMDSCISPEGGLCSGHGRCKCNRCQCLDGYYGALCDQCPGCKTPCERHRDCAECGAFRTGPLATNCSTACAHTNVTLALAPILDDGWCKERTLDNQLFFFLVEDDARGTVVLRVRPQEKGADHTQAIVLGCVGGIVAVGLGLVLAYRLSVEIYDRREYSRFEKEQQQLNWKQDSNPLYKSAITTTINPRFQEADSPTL
Test: Integrin Adhesion Assay: Protocol 4 (MAdCAM-coated plate, RPMI-8866 cells with stable LOF mutation of the ITGB1 gene)
Assay type: cell-based
Conditions: Protocol 4; RPMI-8866 cells with LOF mutation of ITGB1, MAdCAM; read-out: Mean IC50 α4β7 KO
OUTCOME MEASURE: IC50

{"COMPOUND": "COc1ccc(CN2CCC(F)(F)CC2)c(OC)c1-c1cccc2c(C[C@H](NC(=O)C3(C(F)(F)F)CCN(CC(F)(F)F)CC3)C(=O)O)cccc12", "ENDPOINT VALUE": "10 to 100 nM"}
{"COMPOUND": "COc1ccc2c(c1-c1cccc3c(C[C@H](NC(=O)C4(C(F)(F)F)CCN(CC(F)(F)F)CC4)C(=O)O)cccc13)CN(CC(F)(F)F)CC2", "ENDPOINT VALUE": "10 to 100 nM"}
{"COMPOUND": "COc1ccc2c(c1-c1cccc3c(C[C@H](NC(=O)c4c(C)cccc4F)C(=O)O)cccc13)CCN(CC(F)(F)F)C2", "ENDPOINT VALUE": "10 to 100 nM"}
{"COMPOUND": "O=C(O)[C@H](Cc1cccc2c(-c3nccc4ccc(CCN5CCCCC5)cc34)cccc12)NC(=O)C1(C(F)(F)F)CCN(CC(F)(F)F)CC1", "ENDPOINT VALUE": "< 10 nM"}
{"COMPOUND": "O=C(O)[C@H](Cc1cccc2c(-c3ncccc3CCN3CCCCC3)cccc12)NC(=O)C1(C(F)(F)F)CCN(CC(F)(F)F)CC1", "ENDPOINT VALUE": "10 to 100 nM"}
{"COMPOUND": "O=C(O)[C@H](Cc1cccc2c(-c3ncc(CN4CCCCC4)cc3Cl)cccc12)NC(=O)C1(C(F)(F)F)CCN(CC(F)(F)F)CC1", "ENDPOINT VALUE": "10 to 100 nM"}
{"COMPOUND": "CC1CCN(Cc2ccc3c(c2)c(C(F)(F)F)c(-c2cccc4c(C[C@H](NC(=O)C5(C(F)(F)F)CCN(CC(F)(F)F)CC5)C(=O)O)cccc24)c(=O)n3C)CCC1(F)F (some centres unmarked)", "ENDPOINT VALUE": "10 to 100 nM"}
{"COMPOUND": "Cc1cc(CN2CCC(C)(C)CC2)cnc1-c1cccc2c(C[C@H](NC(=O)C3(C(F)(F)F)CCN(CC(F)F)CC3)C(=O)O)cccc12", "ENDPOINT VALUE": "< 10 nM"}
{"COMPOUND": "COc1cc(C(F)(F)F)cc(CN2CCCCC2)c1-c1cccc2c(C[C@H](NC(=O)C3(C(F)(F)F)CCN(CC(F)(F)F)CC3)C(=O)O)cccc12", "ENDPOINT VALUE": "10 to 100 nM"}
{"COMPOUND": "COc1ccc(CN2CCCC(F)C2)c(C(F)(F)F)c1-c1cccc2c(C[C@H](NC(=O)C3(C(F)(F)F)CCN(CC(F)(F)F)CC3)C(=O)O)cccc12 (some centres unmarked)", "ENDPOINT VALUE": "10 to 100 nM"}
{"COMPOUND": "O=C(O)[C@H](Cc1cccc2c(-c3ncc(CN4CCC5(CCC5)C4)c4ccccc34)cccc12)NC(=O)C1(C(F)(F)F)CCN(CC(F)(F)F)CC1", "ENDPOINT VALUE": "< 10 nM"}
{"COMPOUND": "COc1cccc(CCN2CCC(C)C(F)(F)CC2)c1-c1cccc2c(C[C@H](NC(=O)C3(C(F)(F)F)CCN(CC(F)F)CC3)C(=O)O)cccc12 (some centres unmarked)", "ENDPOINT VALUE": "< 10 nM"}
{"COMPOUND": "CC[C@H]1CCCCN1Cc1cnc(-c2cccc3c(C[C@H](NC(=O)C4(C(F)(F)F)CCN(CC(F)F)CC4)C(=O)O)cccc23)c2ccccc12", "ENDPOINT VALUE": "< 10 nM"}
{"COMPOUND": "O=C(O)[C@H](Cc1cccc2c(-c3ncc(CN4CC(F)C4)c4ccccc34)cccc12)NC(=O)C1(C(F)(F)F)CCN(CC(F)F)CC1", "ENDPOINT VALUE": "< 10 nM"}
{"COMPOUND": "C[C@@H]1CN(Cc2cnc(-c3cccc4c(C[C@H](NC(=O)C5(C(F)(F)F)CCN(CC(F)(F)F)CC5)C(=O)O)cccc34)c3ccccc23)C[C@H](C)O1", "ENDPOINT VALUE": "10 to 100 nM"}
{"COMPOUND": "CN(C)CCc1ccc2c(c1)c(C(F)(F)F)c(-c1cccc3c(C[C@H](NC(=O)c4c(F)cccc4CN4CCC(F)(F)CC4)C(=O)O)cccc13)c(=O)n2C", "ENDPOINT VALUE": "< 10 nM"}
{"COMPOUND": "O=C(O)[C@H](Cc1cccc2c(-c3ncc(CN4CCOCC45CC5)c4ccccc34)cccc12)NC(=O)C1(C(F)(F)F)CCN(CC(F)F)CC1", "ENDPOINT VALUE": "< 10 nM"}
{"COMPOUND": "COc1ccc2c(c1-c1cccc3c(C[C@H](NC(=O)C4(C(F)(F)F)CCN(CC(F)(F)F)CC4)C(=O)O)cccc13)CCN(C)C2", "ENDPOINT VALUE": "< 10 nM"}
{"COMPOUND": "COc1cccc(CCN2CCC[C@H](F)C2)c1-c1cccc2c(C[C@H](NC(=O)C3(C(F)(F)F)CCN(CC(F)(F)F)CC3)C(=O)O)cccc12", "ENDPOINT VALUE": "10 to 100 nM"}
{"COMPOUND": "COc1ccc(CCN2CCCCC2)c(C(F)(F)F)c1-c1cccc2c(C[C@H](NC(=O)c3c(C)cccc3F)C(=O)O)cccc12", "ENDPOINT VALUE": "< 10 nM"}
{"COMPOUND": "O=C(N[C@@H](Cc1cccc2c(-n3cccc(C(F)(F)F)c3=O)cccc12)C(=O)O)c1c(F)cccc1F", "ENDPOINT VALUE": "10 to 100 nM"}
{"COMPOUND": "COc1cc(CN2CCC(C)(C)CC2)cnc1-c1cccc2c(C[C@H](NC(=O)C3(C(F)(F)F)CCN(CC(F)(F)F)CC3)C(=O)O)cccc12", "ENDPOINT VALUE": "< 10 nM"}
{"COMPOUND": "Cc1cc(CN2CCN(C3CC3)CC2)cnc1-c1cccc2c(C[C@H](NC(=O)C3(C(F)(F)F)CCN(CC(F)F)CC3)C(=O)O)cccc12", "ENDPOINT VALUE": "< 10 nM"}
